# assayed target: G6PD (Homo sapiens)
# test method notes: G6PD enzymatic activity by diaphorase-coupled assay
# assay setup: read-out: IC50 (half-maximal inhibitory constant) against human G6PD; coupled enzymatic assay, recombinant human enzyme
# Sequence (P11413 28-515): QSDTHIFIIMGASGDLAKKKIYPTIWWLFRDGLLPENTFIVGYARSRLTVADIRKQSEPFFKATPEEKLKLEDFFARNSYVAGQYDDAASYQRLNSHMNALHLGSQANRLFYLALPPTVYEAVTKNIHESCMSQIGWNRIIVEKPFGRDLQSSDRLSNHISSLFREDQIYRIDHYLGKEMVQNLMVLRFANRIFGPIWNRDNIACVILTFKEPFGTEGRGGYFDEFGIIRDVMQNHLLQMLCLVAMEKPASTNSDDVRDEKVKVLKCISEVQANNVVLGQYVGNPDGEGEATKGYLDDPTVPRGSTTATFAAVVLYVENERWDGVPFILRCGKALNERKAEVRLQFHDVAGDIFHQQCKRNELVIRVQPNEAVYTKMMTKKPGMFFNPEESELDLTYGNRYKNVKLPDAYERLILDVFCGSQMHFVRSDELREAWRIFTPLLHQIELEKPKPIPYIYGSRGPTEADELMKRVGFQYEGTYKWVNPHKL
attribute measured: IC50 (nM)
Answers are plain numbers, in nM.

Form field: IC50 recorded for N#Cc1cc(Nc2ncc3c(n2)CCCCC3=O)cs1 [Compound 2] with G6PD (Homo sapiens) (enter value)
70

----------
Give measured IC50 for each item. Keep answers brief.
# assayed target: UniProt P11413
# test method notes: G6PD enzymatic activity by diaphorase-coupled assay
# assay setup: Normalized in vitro IC50, Table 1; diaphorase-coupled biochemical assay, normalization to an intraplate control

# compound, IC50
rows = [
    ("CCOc1cccc(Nc2ncc3c(n2)CCCC3=O)c1", "1 to 1000 µM"),
]

Please give IC50, item by item, for the list that follows.
1. CCNC(=O)Nc1cccc(Nc2ncc3c(n2)CCCC3=O)c1
2. O=C1CCCc2nc(Nc3ccc4[nH]ncc4c3)ncc21
3. C#Cc1cccc(Nc2ncc3c(n2)CCCC3=O)c1
4. Cc1ccccc1Nc1ncc2c(n1)CCCC2=O
5. O=C1CCCc2nc(Nc3ccc4ncsc4c3)ncc21
6. N#Cc1cccc(Nc2ncc3c(n2)CCC(Br)C3=O)c1 (stereo not shown)
7. O=C1CCCc2nc(Nc3nc4ccccc4[nH]3)ncc21

1: 1 to 1000 µM; 2: < 1 µM; 3: 1 to 1000 µM; 4: 1 to 1000 µM; 5: 1 to 1000 µM; 6: < 1 µM; 7: 1 to 1000 µM

Please give IC50, item by item, for the list that follows.
1. O=C(Nc1ncc2c(n1)CCCC2=O)c1ccccc1
2. O=C1CCCc2nc(Nc3cccc(O)c3)ncc21

1: > 1000 µM; 2: < 1 µM

----------
Give measured pIC50 for each item. Keep answers brief.
# assayed target: G6PD (Homo sapiens)
# test method notes: G6PD enzymatic activity by diaphorase-coupled assay
pIC50: −log10 of the molar value.

Some solved cases for reference:
# molecule, attribute measured, result
rows = [
    ("Cc1cccc(Nc2ncc3c(n2)CCNC3=O)c1", "pIC50", "3.00 to 6.00"),
    ("COc1ccc(COc2cc(C#N)cc(Nc3ncc4c(n3)CCCCC4=O)c2)cc1", "pIC50", "> 6.00"),
    ("N#Cc1cc(Nc2ncc3c(n2)CCCCC3=O)cc(OCc2ccc(F)cc2)c1", "pIC50", "> 6.00"),
    ("Cc1cc(Nc2ncc3c(n2)CCCC3=O)no1", "pIC50", "3.00 to 6.00"),
    ("N#Cc1cc(Nc2ncc3c(n2)CCCCC3=O)cc(OCc2ccccn2)c1", "pIC50", "> 6.00"),
]

Please give pIC50, item by item, for the list that follows.
1. CCCOc1cc(C#N)cc(Nc2ncc3c(n2)CCCCC3=O)c1
2. N#Cc1cc(Nc2ncc3c(n2)CCCc2cn[nH]c2-3)cs1

1: > 6.00; 2: 3.00 to 6.00

Please give pIC50, item by item, for the list that follows.
1. O=C1CCCCc2nc(Nc3cc(Cl)cc(C(F)(F)F)c3)ncc21
2. COC1CCc2nc(Nc3csc(C#N)c3)ncc2C1=O (centres unmarked)
3. CCCCCCCCCCCCCCOc1cc(C#N)cc(Nc2ncc3c(n2)CCCCC3=O)c1

["3.00 to 6.00", "> 6.00", "< 3.00"]

Please give pIC50, item by item, for the list that follows.
1. N#Cc1cc(Nc2ncc3c(n2)CCCCC3=O)cc(OCc2cccc3ccccc23)c1
2. O=C1c2cnc(Nc3cccc(Cl)c3)nc2CCCC1Br (centres unmarked)
3. N#Cc1cc(Nc2ncc3c(n2)CCCCC3=O)cc(OCc2cccc(Cl)c2)c1

> 6.00
> 6.00
> 6.00

----------
# assayed target: G6PD (Homo sapiens, UniProt P11413)
# test method notes: G6PD enzymatic activity by diaphorase-coupled assay
Give measured IC50 for each item. Keep answers brief.

Please give IC50, item by item, for the list that follows.
1. N#Cc1cc(Nc2ncc3c(n2)CCCCC3=O)cc(OCC2CCOCC2)c1
2. N#Cc1cccc(Nc2ncc3c(n2)CCCCC3=O)c1F
3. N#Cc1cc(Nc2ncc3c(n2)CCCc2cnoc2-3)cs1
4. N#Cc1cc(Nc2ncc3c(n2)CCCCC3=O)cc(OCc2c[nH]c3ccccc23)c1

1: < 1 µM; 2: < 1 µM; 3: 1 to 1000 µM; 4: > 1000 µM

Please give IC50, item by item, for the list that follows.
1. N#Cc1cc(Nc2ncc3c(n2)CCCCC3=O)c[nH]1
2. N#Cc1cc(Nc2ncc3c(n2)CCCCC3=O)cc(OCC23C[C@H]4C[C@@H](C2)C[C@@H](C3)C4)c1
3. N#Cc1cccc(Nc2ncc3c(n2)COCC3=O)c1

1. < 1 µM
2. > 1000 µM
3. 1 to 1000 µM

Please give IC50, item by item, for the list that follows.
1. C#CCC1(COc2cc(C#N)cc(Nc3ncc4c(n3)CCCCC4=O)c2)N=N1
2. N#Cc1scc(Nc2ncc3c(n2)CCCCC3=O)c1-n1cccc1

> 1000 µM
< 1 µM

----------
Give measured IC50 for each item. Keep answers brief.
# assayed target: G6PD (Homo sapiens)
# test method notes: G6PD enzymatic activity by diaphorase-coupled assay

# compound, IC50
rows = [
    ("O=C1c2cnc(Nc3cccc(Cl)c3)nc2CCCC1O (centres unmarked) [KG-0332-0]", "1 to 1000 µM"),
    ("COCCOc1cc(C#N)cc(Nc2ncc3c(n2)CCCCC3=O)c1 [Compound 0125]", "< 1 µM"),
    ("N#Cc1cc(Nc2ncc3c(n2)CCCCC3=O)cc(OCCN)c1 [Compound 0128]", "1 to 1000 µM"),
    ("N#Cc1cc(Nc2ncc3c(n2)CCCCC3=O)cc(OCC2CCC2)c1 [Compound 0098]", "1 to 1000 µM"),
]

Which value of IC50 has been reported for Cn1cc(Nc2ncc3c(n2)CCCCC3=O)cc1C#N [Compound 0057] in the records?
1 to 1000 µM

----------
# assayed target: G6PD (Homo sapiens, UniProt P11413)
# test method notes: G6PD enzymatic activity by diaphorase-coupled assay
Give measured IC50 for each item. Keep answers brief.

Some solved cases for reference:
# compound, IC50
records = [
    ("N#Cc1cc(Nc2ncc3c(n2)CCCCC3=O)cs1 [KG-0338]", "< 1 µM"),
    ("Cc1ccc(C(=O)c2cc(Cl)cc(Nc3ncc4c(n3)CCCCC4=O)c2)cc1 [Compound 0043]", "> 1000 µM"),
    ("N#Cc1cc(Nc2ncc3c(n2)CCCCC3=O)cc(OCc2ccncc2)c1 [Compound 0078]", "< 1 µM"),
]

Please give IC50, item by item, for the list that follows.
1. CC(C)(C)COc1cc(C#N)cc(Nc2ncc3c(n2)CCCCC3=O)c1 [Compound 0106]
2. O=C1CCCCc2nc(Nc3ccc([N+](=O)[O-])c(Cl)c3)ncc21 [Compound 0025]
3. N#Cc1cccc(Nc2ncc3c(n2)CCCC3O)c1 (stereo not drawn) [KG-0261-10]
4. N#Cc1cc(Nc2ncc3c(n2)CCCCC3(F)F)cs1 [Compound 0031]

1: > 1000 µM; 2: 1 to 1000 µM; 3: 1 to 1000 µM; 4: 1 to 1000 µM

Please give IC50, item by item, for the list that follows.
1. C#CCOc1cc(C#N)cc(Nc2ncc3c(n2)CCCCC3=O)c1 [Compound 0062]
2. N#Cc1cc(Nc2ncc3c(n2)CCCCC3=O)cc(OCc2ccc3ccccc3c2)c1 [Compound 0080]

1: < 1 µM; 2: 1 to 1000 µM

----------
Give measured IC50 for each item. Keep answers brief.
# assayed target: UniProt P11413
# test method notes: G6PD enzymatic activity by diaphorase-coupled assay

Please give IC50, item by item, for the list that follows.
1. C#CCCCOc1cc(C#N)cc(Nc2ncc3c(n2)CCCCC3=O)c1
2. O=C1CCCCc2nc(Nc3csc(-c4nnn[nH]4)c3)ncc21
3. N#Cc1cc(Nc2ncc3c(n2)CCCCC3C(C#N)C#N)cs1 (centres unmarked)
4. N#Cc1cc(Nc2ncc3c(n2)CCCCC3=O)cc(OCc2ccc(Br)cc2)c1
5. N#Cc1cc(Nc2ncc3c(n2)CCCCC3=O)cc(OCC2CCCCC2)c1

1: < 1 µM; 2: 1 to 1000 µM; 3: 1 to 1000 µM; 4: 1 to 1000 µM; 5: 1 to 1000 µM

----------
# assayed target: G6PD (Homo sapiens, UniProt P11413)
# test method notes: 2H transfer from 1-2H-glucose to NADPH active hydride and C16:0 in HCT116 cells
# Format: cell-based
# Parameters: endogenous in cells; host or cells: HCT116
# assay setup: HCT116 cells; read-out: IC50, decrease in 2H transfer from 1-2H-glucose to NADPH's active hydride
# Sequence (P11413 whole entry): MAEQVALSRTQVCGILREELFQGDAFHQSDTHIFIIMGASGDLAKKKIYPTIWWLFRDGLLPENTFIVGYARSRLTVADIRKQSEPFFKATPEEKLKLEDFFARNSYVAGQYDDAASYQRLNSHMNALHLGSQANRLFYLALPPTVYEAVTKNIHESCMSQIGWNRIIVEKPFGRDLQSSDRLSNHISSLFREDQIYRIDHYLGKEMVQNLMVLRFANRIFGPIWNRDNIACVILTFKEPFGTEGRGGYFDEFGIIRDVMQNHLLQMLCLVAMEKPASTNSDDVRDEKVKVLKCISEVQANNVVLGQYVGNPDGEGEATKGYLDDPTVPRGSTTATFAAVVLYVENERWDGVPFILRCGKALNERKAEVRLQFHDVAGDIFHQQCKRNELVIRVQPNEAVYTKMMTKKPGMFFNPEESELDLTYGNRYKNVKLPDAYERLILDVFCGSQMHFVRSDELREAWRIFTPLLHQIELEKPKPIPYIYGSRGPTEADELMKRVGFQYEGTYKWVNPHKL
attribute measured: IC50

Which value of IC50 has been reported for "N#Cc1cc(Nc2ncc3c(n2)CCCCC3=O)cs1" in the records?
~31 µM

Measured values drawn from patent US20230348401A1 for this set.
